Test system: S. aureus UAMS-1
Assay: Broth microdilution growth inhibition (MIC)
Type: cell-based, Staphylococcus aureus
Settings: Staphylococcus aureus, UAMS1, ≥50% growth inhibition, ND = not detected at 4–563 μM
Protocol: Fraction 430F-F5 and isolated compounds of S. terebinthifolia 1-3, were evaluated for minimum inhibitory concentrations (MICs) against the four agr groups, the biofilm test strain (UAMS-1) and NRS249 (for δ-toxin quantification experiments) following the Clinical Laboratory Standards Institute (CLSI) M100-S23 guidelines for microtiter broth dilution testing. […] The optical density (OD600nm) was measured with a BioTek Cytation 3 multimode plate reader, to calculate percent inhibition of growth. […]
Kindly supply the reported IC50 values for the records listed here.

Compound	Obs Value
CC1(C)CCC2(C(=O)O)CCC3(C)C(=CCC4C5(C)CCC(=O)C(C)(C)C5CCC43C)C2C1 (stereo not drawn)	> 563 µM

For each listed entry, give its IC50.
1. CC(=CCCC(C)C1CCC2(C)C3=CCC4C(C)(C)C(=O)CCC4(C)C3CCC12C)C(=O)O (stereo not drawn) [Compound 2, 3-oxotirucalla-7,24Z-dien-26-oic acid]
2. CC(=CCCC(C)C1CCC2(C)C3=CCC4C(C)(C)C(O)CCC4(C)C3CCC12C)C(=O)O (stereo not drawn)

// result
1: 35 µM; 2: 35 µM
